Target: full-length beta-Catenin (Uniprot ID P35222) (Homo sapiens (Human)) (UniProt P35222)
Sequence (P35222 whole entry): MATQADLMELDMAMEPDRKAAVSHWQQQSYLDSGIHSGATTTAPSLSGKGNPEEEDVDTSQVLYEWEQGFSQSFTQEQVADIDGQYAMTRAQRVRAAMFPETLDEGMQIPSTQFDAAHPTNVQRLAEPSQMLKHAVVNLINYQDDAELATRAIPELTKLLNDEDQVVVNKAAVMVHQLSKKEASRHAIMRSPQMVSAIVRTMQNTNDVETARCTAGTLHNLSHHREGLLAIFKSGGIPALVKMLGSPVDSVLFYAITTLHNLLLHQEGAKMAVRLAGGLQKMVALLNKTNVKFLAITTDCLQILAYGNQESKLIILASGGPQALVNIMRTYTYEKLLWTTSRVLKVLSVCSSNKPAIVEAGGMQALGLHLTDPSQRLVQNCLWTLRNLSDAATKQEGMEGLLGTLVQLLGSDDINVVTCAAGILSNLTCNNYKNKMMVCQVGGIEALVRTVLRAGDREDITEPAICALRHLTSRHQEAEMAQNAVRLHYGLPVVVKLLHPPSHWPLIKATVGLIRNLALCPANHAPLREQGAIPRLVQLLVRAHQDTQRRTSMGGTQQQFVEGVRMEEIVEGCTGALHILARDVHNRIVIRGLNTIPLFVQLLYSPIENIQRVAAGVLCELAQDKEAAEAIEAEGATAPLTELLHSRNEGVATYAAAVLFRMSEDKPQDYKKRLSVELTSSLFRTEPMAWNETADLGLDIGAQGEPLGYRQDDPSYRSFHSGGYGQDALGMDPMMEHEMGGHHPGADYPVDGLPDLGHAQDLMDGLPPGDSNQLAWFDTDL
Assay: FP competition: full-length beta-catenin 10 nM + 5FAM-TCF4(10-53) 10 nM
Starred links: 1 amine or outer side, 2 acyl side, 3 side chain; linkers in the order of their positions; H or OH if unused. Positions of bridges follow the written chain, without caps; N, C: chain ends. Non-standard residues stand in square brackets, D forms with d. Primed or numbered codes have the meaning given here. *: point of attachment. B5(4) = 2,2-bis(4-pentenyl)glycine = 2-amino-2-(pent-4-en-1-yl)hept-6-enoic acid (stitching residue), C=CCCCC(CCCC=C)(N[*:1])C(=O)[*:2]; B5(20) = 2-amino-2-(pent-4-en-1-yl)hept-6-enoic acid = bis(4-pentenyl)glycine, stitching residue, C=CCCCC(CCCC=C)(N[*:1])C(=O)[*:2]; Abu(4,4-F2) = N[C@@H](CC(F)F)C(=O)O; Bta = N[C@@H](Cc1csc2ccccc12)C(=O)O; αAllylPro = C=CC[C@@]1(C(=O)O)CCCN1; 3Thi = N[C@@H](Cc1ccsc1)C(=O)O; S8 = C=CCCCCCC[C@](C)(N)C(=O)O; Dab = NCC[C@H](N)C(=O)O; Dap = NC[C@H](N)C(=O)O; Ms = CS(=O)(=O)*
Assay Endpoint: IC50

Past entries and their recorded results:
Binder: Ac-[αAllylPro]DA[B5(20)]DEAAFN[S8][3Thi][Bta]Q-NH2 (staple 1-4, 4-11; also: later-eluting HPLC peak of staple isomers) [I-519]
Reported Measurement: 33 nM

Binder: Ac-[αAllylPro]DI[B5(20)]DEAAFN[S8][3Thi][Bta]H-NH2 (staple 1-4, 4-11) [I-517]
Reported Measurement: 15 nM

Binder: Ac-[αAllylPro]DA[B5(4)][Dab](Ms)EAAFN[S8]F[Bta]Q-NH2 (staple 1-4, 4-11) [I-531]
Reported Measurement: 5000 nM

Binder: Ac-[αAllylPro]D[Abu(4,4-F2)][B5(4)]DEAAFQ[S8]F[Bta]Q-NH2 (staple 1-4, 4-11) [I-503]
Reported Measurement: 84 nM

Next up:
Please list IC50 recorded for the binder Ac-[αAllylPro]DA[B5(4)][Dap](Ms)EAAFN[S8]F[Bta]Q-NH2 (staple 1-4, 4-11) [I-529]
5000 nM
